Entries and their survival values follow.
# Test system: DeltatarO mutant
# assay.protocol: S. aureus survival, RN4220 and DeltatarO strains – OD600, teichoic acid synthesis inhibitors, primary screen (AID 463173)
# condition.label: S. aureus RN4220 wild type/DeltatarO growth, OD600, 18 h, hits give low values, screened at 18.75 µg/mL (by protocol)
About 4,300 (8.3%) of roughly 52,000 compounds were called active. This is one part of a sample in which actives are shown more often than they occur.
attribute.measured: survival (%)

>>> print(df.to_string())
                                    compound  attribute_measured  assay_value
 0  COc1ccc(C(CC(=O)Nc2ccc(F)c(Cl)c2)N2Cc3ccccc3C2=O)cc1OC (stereo unspecified)            survival           75
 1     O=C(NCc1cccn1Cc1ccccc1)Nc1ccc(Br)cc1F            survival           66
 2  CCc1nn(C(C)C(=O)N2CCN(c3cccc(C(F)(F)F)c3)CC2)c(=O)c2cc3occc3n12 (stereo unspecified)            survival           73
 3  COc1ccc(Nc2cc(C)nc(-n3nc(C)cc3C)n2)cc1Cl            survival           81
 4  COc1ccc(NC(=O)CCc2c(C)nn(-c3ccc(N4CCCCC4)nn3)c2C)cc1Cl            survival           87
 5  Cc1ccc(Cl)cc1N1CCN(C(=O)c2ccc3nc(N4CCC(C)CC4)sc3c2)CC1            survival           29
 6                CCCCSc1ncc(C(=O)OCC)c(N)n1            survival           78
 7  COc1cccc(N2CCN(C(=O)c3ccc4nc(N5CCC(C)CC5)sc4c3)CC2)c1            survival           62
 8              CCOC(=O)c1cnc(SCC(=O)OC)nc1N            survival           95
 9  COc1ccc(NC(=O)CSCc2cc(=O)c3cc(C)ccc3[nH]2)cc1            survival           68
10  CC1CCN(c2nc3ccc(C(=O)NCc4ccc(Cl)cc4)cc3s2)CC1            survival          128
11  Cc1ccc(Cl)cc1N1CCN(CCCNC(=O)c2ccc3nc(N4CCCCC4)sc3c2)CC1            survival           77
12  Cc1ccc(C)c(N2CCN(CCCNC(=O)c3ccc4nc(N5CCC(C)CC5)sc4c3)CC2)c1            survival            4
13  CCCS(=O)(=O)N1CCC(N2CCN(Cc3ccc(F)cc3)C(=O)C2=O)CC1            survival           83
14  Cc1cccc(N2CCN(C(=O)c3ccc4nc(N5CCC(C)CC5)sc4c3)CC2)c1C            survival            1
15  O=C(CCCn1c(=O)c2sccc2n(Cc2c(F)cccc2Cl)c1=O)NCc1ccccc1            survival          138
16  Cc1ccccc1Cn1c(=O)n(CC2CCC(C(=O)N3CCC(C)CC3)CC2)c(=O)c2sccc21 (stereo unspecified)            survival           73
17  CC(C)Oc1ccc(CNC(=O)c2cnc3sc(N4CCCCC4)nn3c2=O)cc1            survival          124
18  COc1ccc(N(C(=O)c2ccc(OC)c(OC)c2)S(=O)(=O)c2ccc(Cl)cc2)cc1            survival           80
19  COc1ccc(N2CCN(C(=O)c3ccc4nc(N5CCC(C)CC5)sc4c3)CC2)cc1            survival           84
20  CC(=O)N1Cc2ccccc2C(C)CC12CCCC2 (stereo unspecified)            survival          119

----------
# Tested on: DeltatarO mutant
# assay.protocol: S. aureus survival, RN4220 and DeltatarO strains – OD600, teichoic acid synthesis inhibitors, primary screen (AID 463173)
# condition.label: S. aureus RN4220 wild type/DeltatarO growth, OD600, 18 h, screened at 18.75 µg/mL (by protocol)
About 4,300 (8.3%) of roughly 52,000 compounds were called active. No stated cut-off is given here; in the data, active means survival mostly below about 52% (no sharp cut-off); inactive means mostly above about 56%. Only a selection was taken, and actives are over-represented in it overall.
Outcomes: 1 = active, 0 = inactive

                                   molecule  class_assignment
0  CC(C)C(c1nnnn1Cc1ccccc1)N1CCN(c2ccccc2)CC1 (stereo not given)                 0
1  COC(=O)c1ccccc1NC(=O)c1cnc(Nc2ccc(OC)cc2)c2ccccc12                 0
2  COc1ccc(OC)c(NC(=O)c2cnc(Nc3ccc(C)c(Cl)c3)c3ccccc23)c1                 1
3  CCCCNC(=O)Cn1ncc2c(C)n(Cc3cccc(Cl)c3)c(C)c2c1=O                 0
4  Cc1nnc(NC(=O)c2nc(S(=O)(=O)Cc3ccccc3)ncc2Cl)s1                 1
5  Cc1ccc(-c2cc(C(=O)N3CCN(S(=O)(=O)c4ccc(Br)s4)CC3)[nH]n2)cc1C                 0
6       Cc1cc(C(=O)Nc2cccc(OC(C)C)c2)c(C)o1                 0
7  COc1ccc(OC)c(NC(=O)c2cnn(-c3ccc(C)cc3)c2C2CCNCC2)c1                 0
8  CCC(c1nnnn1Cc1ccccc1)N1CCN(c2cccc(Cl)c2)CC1 (stereo not given)                 0
9            COc1ccc(Cc2nnc(SCC(N)=O)o2)cc1                 0

----------
Entries and their survival values follow.
# Tested on: DeltatarO mutant
# assay.protocol: S. aureus survival, RN4220 and DeltatarO strains – OD600, teichoic acid synthesis inhibitors, primary screen (AID 463173)
# condition.label: S. aureus RN4220 wild type/DeltatarO growth, OD600, 18 h, hits give low values, screened at 18.75 µg/mL (by protocol)
Among all 52,000 compounds or so, about 4,300 (8.3%) were called active. What follows is part of a selection rich in actives, with near analogues and random picks from the rest.
attribute.measured: survival

                                    compound  attribute_measured      assay_value
 0  CCCN(Cc1cc2cc(C)ccc2[nH]c1=O)C(=O)c1cccc(Cl)c1            survival   73% (inactive)
 1  CCOC(=O)/C=C(\C)Nc1cc(-c2ccc(Cl)cc2)[nH]n1            survival   68% (inactive)
 2  COc1ccc(CCNC(=O)Cn2ncc3c(=O)oc4ccccc4c32)c(OC)c1            survival   89% (inactive)
 3  Cc1c(Cl)ccc2sc(N3CCN(C(=O)c4ccco4)CC3)nc12            survival   69% (inactive)
 4  COc1cc(NC(=O)N2CCC(CN3CCc4ccccc4C3)CC2)cc(OC)c1            survival   70% (inactive)
 5  COCCN(CCOC)C(=O)c1cc2c(=O)n3ccccc3nc2n1C            survival   51% (inactive)
 6  CC(C)C(NS(=O)(=O)c1ccc2c(c1)oc(=O)n2C)C(=O)NCCc1ccccc1 (configuration not stated)            survival   89% (inactive)
 7            Clc1ccccc1-c1nnc(COc2ccccc2)o1            survival   50% (inactive)
 8  CCOc1ccc(NC(=O)N2CCC(CN3CCc4ccccc4C3)CC2)cc1            survival     -1% (active)
 9  Cc1cccc(NC(=O)N2CCC(CN3CCc4ccccc4C3)CC2)c1C            survival     -2% (active)
10  CC(CNC(=O)Cn1ccc2cc(S(=O)(=O)N3CCCCCC3)ccc21)c1ccccc1 (configuration not stated)            survival  109% (inactive)
11  CCCc1nc2nc(C)c(NS(=O)(=O)c3ccc(C)c(C)c3)c(=O)n2[nH]1            survival  129% (inactive)
12  Cc1cc(C)cc(NC(=O)C(=O)NCCc2sc(-c3cccc(F)c3)nc2C)c1            survival   80% (inactive)
13  CCN(C(=O)C1CCN(S(=O)(=O)c2ccc3c(c2)CCCN3C(C)=O)CC1)c1cccc(C)c1            survival   88% (inactive)
14   CCOc1ccc(NC(=O)N2CCC(CN3CCCCCC3)CC2)cc1            survival  115% (inactive)
15  COC(=O)c1ccc(NC(=O)N2CCC(CN3CCc4ccccc4C3)CC2)cc1            survival      6% (active)
16  COc1cccc(NC(=O)C2CCCN(S(=O)(=O)c3c(C)nn(C)c3C)C2)c1 (configuration not stated)            survival   87% (inactive)
17          CC(=O)Nc1cc(-c2ccc(Cl)cc2)[nH]n1            survival  106% (inactive)
18        CCNC(=S)Nc1cc(-c2ccc(Cl)cc2)[nH]n1            survival     20% (active)
19                         Cc1ccc(N)cc1N(C)C            survival   78% (inactive)
20  O=c1cc(-c2ccc(F)cc2)nc(SCc2nc(-c3cccc(C(F)(F)F)c3)no2)[nH]1            survival   99% (inactive)
21  Cc1ccc2cc(CN(CC3CCCO3)C(=O)C3CCC3)c3nnnn3c2c1 (configuration not stated)            survival   95% (inactive)
